Values from patent US20260297042A1

target: Human PKMYT1 (Homo sapiens, UniProt Q99640); construct: Human PKMYT1 75-362 was cloned as a TEV cleavable 6xHis fusion; 6xHis (TEV cleavable) (cleaved yes); made in house; host or cells: bacterial cells; assay: PKMYT1 biochemical ADP-Glo enzymatic assay; conditions: PKMYT1 kinase domain 15 nM; ADP-Glo; banded values
Sequence (Q99640 75-362): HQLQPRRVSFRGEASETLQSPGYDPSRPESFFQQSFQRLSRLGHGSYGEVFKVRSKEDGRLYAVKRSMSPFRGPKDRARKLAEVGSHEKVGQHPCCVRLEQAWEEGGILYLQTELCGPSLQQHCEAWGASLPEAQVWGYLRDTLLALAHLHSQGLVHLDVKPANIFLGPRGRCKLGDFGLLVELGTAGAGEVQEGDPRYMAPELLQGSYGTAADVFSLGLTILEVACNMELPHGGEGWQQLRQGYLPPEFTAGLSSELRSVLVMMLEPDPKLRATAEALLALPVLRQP
outcome-measure: IC50

[
  {
    "molecule": "Cc1ccc(O)c(C)c1NC(=O)c1cnc(Nc2nc3ccccc3s2)s1",
    "IC50": "50 to 1000 nM"
  }
]

## Task Fill in the blank: the reported IC50 of Cc1cn(CC(=O)N2CCCC2c2ccccc2)nc1Nc1ncc(C(=O)Nc2c(C)ccc(O)c2C)s1 (stereo not drawn) is ____.
## Result < 50 nM

## Task Field request: IC50 | item: Cc1ccccc1Nc1ncc(C(=O)Nc2c(C)ccc(O)c2C)s1
## Result 50 to 1000 nM

## Task What IC50 value was documented for this molecule, CCCN(C)C(=O)Cn1cc(C)c(Nc2ncc(C(=O)Nc3c(C)ccc(O)c3C)s2)n1 ?
## Result < 50 nM
